experimental.protocol: Clearance in mouse plasma
Assay type: ADME, organism-based
readout.name: clearance (mL/min/kg)

sample.smiles	readout.name	result.units	recorded.result
CNC(=O)c1cccc(NC(=O)N2CCC(Oc3ccccc3Cl)CC2)c1	clearance	mL/min/kg	6.67

---

system.tested: Acyl-CoA desaturase 1 (Mus musculus)
Sequence (P13516 whole entry): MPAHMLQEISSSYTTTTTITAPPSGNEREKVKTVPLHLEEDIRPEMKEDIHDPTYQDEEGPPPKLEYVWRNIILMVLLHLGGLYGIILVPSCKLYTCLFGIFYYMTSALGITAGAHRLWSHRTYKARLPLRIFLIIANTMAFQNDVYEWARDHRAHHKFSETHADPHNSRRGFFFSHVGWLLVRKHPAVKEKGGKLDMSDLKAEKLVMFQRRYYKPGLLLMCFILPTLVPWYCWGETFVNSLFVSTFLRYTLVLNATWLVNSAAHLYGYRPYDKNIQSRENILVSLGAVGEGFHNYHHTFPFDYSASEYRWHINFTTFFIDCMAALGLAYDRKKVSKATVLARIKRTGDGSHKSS
pIC50: −log10 of the molar value.
pIC50 overview
readout.name: pIC50

sample.smiles	readout.name	value.operator	recorded.result
O=C(Nc1cccc(-c2ncc[nH]2)c1)N1CCC(Oc2ccccc2Cl)CC1	pIC50	=	8.00
CC(C)(C)NC(=O)c1cccc(NC(=O)N2CCC(Oc3ccccc3Cl)CC2)c1	pIC50	<	5.00
CNC(=O)c1cccc(NC(=O)N2CCC(Oc3ccc(F)cc3Cl)CC2)c1	pIC50	=	8.22
CNC(=O)c1cccc(NC(=O)N2CCC(Oc3ccccc3C)CC2)c1	pIC50	=	7.77
CNC(=O)c1cccc(NC(=O)N2CCC(Oc3ccccc3Cl)CC2)c1	pIC50	>	8.40
CNC(=O)c1cccc(NC(=O)N2CCC(Oc3cccc(Cl)c3)CC2)c1	pIC50	=	7.70
Cc1noc(-c2cccc(NC(=O)N3CCC(Oc4ccccc4Cl)CC3)c2)n1	pIC50	=	8.10
CNC(=O)c1cccc(NC(=O)N2CCC(Oc3ccccc3)CC2)c1	pIC50	=	6.43

---

experimental.protocol: Oral bioavailability in mouse
Type: ADME, organism-based
run.parameters: in vivo

sample.smiles	bioavailability, %
CNC(=O)c1cccc(NC(=O)N2CCC(Oc3ccccc3Cl)CC2)c1	92

---

experimental.protocol: Volume of distribution at steady state in mouse
Assay type: ADME, organism-based
run.parameters: in vivo, read-out: Vdss

sample.smiles	result.units	Vd
CNC(=O)c1cccc(NC(=O)N2CCC(Oc3ccccc3Cl)CC2)c1	L/kg	0.4

---

experimental.protocol: Inhibition of human recombinant SCD1 expressed in baculovirus/insect cell system
Consider the cut-off 300 nM. If the recorded IC50 is strictly smaller, the label is Criterion met; if not, the label is Criterion not met.

sample.smiles	answer.label
CNC(=O)c1cccc(NC(=O)N2CCC(Oc3ccccc3C)CC2)c1	Criterion met
O=C(Nc1cccc(-c2ncc[nH]2)c1)N1CCC(Oc2ccccc2Cl)CC1	Criterion not met
CNC(=O)c1cccc(NC(=O)N2CCC(Oc3ccccc3Br)CC2)c1	Criterion met
CC(C)NC(=O)c1cccc(NC(=O)N2CCC(Oc3ccccc3Cl)CC2)c1	Criterion not met
CNC(=O)c1cccc(NC(=O)N2CCC(Oc3ccccc3OC)CC2)c1	Criterion not met
CNC(=O)c1cccc(NC(=O)N2CCC(Oc3ccccc3Cl)CC2)c1	Criterion met
CNC(=O)c1cccc(NC(=O)N2CCC(Oc3c(F)cccc3Cl)CC2)c1	Criterion not met
CC(C)(C)NC(=O)c1cccc(NC(=O)N2CCC(Oc3ccccc3Cl)CC2)c1	Criterion not met
NC(=O)c1cccc(NC(=O)N2CCC(Oc3ccccc3Cl)CC2)c1	Criterion met
CNC(=O)c1cccc(NC(=O)N2CCC(Oc3ccccc3F)CC2)c1	Criterion not met
CCNC(=O)c1cccc(NC(=O)N2CCC(Oc3ccccc3Cl)CC2)c1	Criterion met
CNC(=O)c1cccc(NC(=O)N2CCC(Oc3cc(F)ccc3Cl)CC2)c1	Criterion met
O=C(Nc1ccccc1)N1CCC(Oc2ccccc2Cl)CC1	Criterion not met
Cc1noc(-c2cccc(NC(=O)N3CCC(Oc4ccccc4Cl)CC3)c2)n1	Criterion met
CNC(=O)c1cccc(NC(=O)N2CCC(Oc3ccccc3)CC2)c1	Criterion not met
CNC(=O)c1cccc(NC(=O)N2CCC(Oc3ccc(F)cc3Cl)CC2)c1	Criterion met
CNC(=O)c1cccc(NC(=O)N2CCC(Oc3cccc(Cl)c3)CC2)c1	Criterion met
